melting point values by entry

Cc1cc(Cn2nnn(-c3ccc(C(F)(F)F)cc3)c2=O)ccc1N :: 210 to 211 °C

Q: Value lookup for melting point; key = Fc1ccc(-c2cc(Cl)c3sccc3n2)cc1
Result: 119 to 121 °C

Q: Also CC1(C)CC(Nc2nc(NC3CC(C)(C)N(O)C(C)(C)C3)nc(N(C3CC(C)(C)N(O)C(C)(C)C3)C3CC(C)(C)N(O)C(C)(C)C3)n2)CC(C)(C)N1O , if possible.
Result: 243 to 246 °C

Q: // repeat for CC(C)c1nsc2c1C(=O)N(C(C)(C)C)C2=O and report
Result: 52 to 53 °C

Q: Moving on to the next compound: CSC(C)(C)C(=O)N[C@@H](CSSC[C@H](NC(=O)C(C)(C)SC)C(=O)O)C(=O)O
Result: 128 to 129 °C

Q: Entry CCCCCCCCCCCCCCCCCC(=O)Nc1cccc(C(=O)N(CC(=O)O)CC(=O)O)c1 please
Result: 132 to 142 °C

Q: Let us now turn to CC(=O)Nc1nc(NC(C)=O)nc(C2CCC(c3ccccc3)CC2)n1 (centres undefined)
Result: 235 to 236 °C

Q: Same question, CC(C)(C)OC(=O)N[C@@H]1C(=O)N(O)C1(C)C this time
Result: 148 to 149 °C

Q: Field entry: CCCOC(=O)C1=C(C)N(C)C(C)=C(C(=O)OCCC)C1c1ccc(Br)cc1
Result: 97 to 99 °C

* * *

Items are presented alongside their recorded melting point.

Worked cases, melting point given:
CC(C)(CF)C(O)C(c1ccc(Cl)cc1Cl)n1cncn1 (centres undefined) :: 98 to 100 °C
CCCOCC1(C)CCCOc2cc(C#Cc3ccc(C(=O)O)cc3)ccc21 (centres undefined) :: 148 to 149 °C
CC(=O)OC1CSC(Oc2cccnc2F)C(OC(C)=O)C1OC(C)=O (centres undefined) :: 160 °C
CC12CCC3C4CCC(OCc5ccccc5)CC4CCC3C1C=CC2=O (centres undefined) :: 119 to 120 °C
CCCN(C1=C(O)CC(C2CCCC2)(C2CCCC2)OC1=O)c1cccc(N)c1 :: 173 to 175 °C
COc1ccc(COc2ccc(CSc3ccc(OCC(=O)O)c(C)c3)cc2)cc1 :: 150 to 152 °C
O=C(c1cncc(Br)c1)N1CCC(c2ccccc2)=N1 :: 113 to 115 °C
COc1cc(CC(C)(C)NC(=O)c2ccc(=O)n(-c3ccc4cc(C)ccc4n3)c2)cc2c1OC(C)(C)C2 :: 192 to 193 °C

Q: Can you share its melting point? I mean this molecule: Cc1c(CNCC(C)(C)O)[nH]c2c(C)c(NC(=O)c3ccc(OC[C@@H]4CCCO4)cc3F)ccc12
Result: 151 to 152 °C

* * *

reported.property: melting point

Please review the entries below; each comes with its answer.
COc1cc(OCCOCc2ccccc2)cc2nc(-c3ccncc3)[nH]c(=O)c12 :: 228 to 230 °C
COC(=O)C1Cc2c(cccc2-c2ccccc2)CN1 (centres undefined) :: 149 to 150 °C
CCc1nc2c(cnn2CC)c(NC2CCOCC2)c1CNC(=O)c1cccc(C(=O)NCc2ccc(C)c(-c3cccc(C=O)c3)c2)c1 :: 114 to 117 °C
Cc1cc(-c2cccc(NC(=O)C(C)(C)C)c2)cc2c1[C@H]1CCC(=O)N(C)[C@@H]1CC2 :: 95 to 98 °C
O=[N+]([O-])c1ccc(-c2ccc(C(O)CCl)o2)cc1 (centres undefined) :: 111 to 113 °C
O=C(CN1CCNCC1)Nc1ccc2c(c1)C(=O)c1cc(NC(=O)CN3CCNCC3)ccc1C2=O :: 173 °C

Q: Requested read-out: melting point. Entry: CNC(=O)Oc1cccc(NC(=O)CC(C)=O)c1
Result: 142 °C

Q: Could you do the same for N=C1C=CC=CC1Cc1cccc2c1NCC2 (centres undefined) , please?
Result: 62 to 63 °C

Q: Next: COP(=O)(OC)[C@H](C)NC(=O)[C@H](C)NC(=O)[C@H](C)NC(=O)OCc1ccccc1
Result: 149 to 151 °C

* * *

reported.property: melting point

Q: Would you mind telling me what melting point value was observed for Cc1ccc(S(=O)(=O)C2CCCN(S(=O)(=O)c3ccc(C)cc3)C2)cc1 (configuration not stated) ?
Result: 124 to 142 °C

Q: Follow-up item: CCC1(CCOCCNC(=O)NC2CCCCC2)Nc2cnc(C)c(C)c2N1 (configuration not stated)
Result: 187 to 189 °C

Q: Here is the next compound: CCOC(=O)c1c[nH]c2c(-c3ccncc3)c(-c3ccc(F)cc3)nn2c1=O
Result: > 250 °C

Q: Another: O=C(O)c1c(Cc2cc3c(cc2Cl)OCO3)c(-c2ccsc2)nn1CC1CCCCC1
Result: 250 °C

Q: Same thing, different compound: CN1CCCCC1COC(=O)Nc1cccc(Br)c1 (configuration not stated)
Result: 67.3 to 68.1 °C

Q: Now give it for COC(=O)CC(Nc1ccccc1OC)c1ccc2ccccc2n1 (configuration not stated) too.
Result: 119 to 121 °C

Q: What would you report for Cc1nc2c(c(Cl)c1C(=O)NC(=N)N)CCCCC2 ?
Result: 210 to 212 °C

Q: Lookup CC(=NO)c1ccccc1N
Result: 55 to 60 °C

Q: What would you report for CC(=O)Nc1cc(Cl)cc(Cl)c1 ?
Result: 182 °C

Q: For CNC(=O)[C@@H]1C=CCN1S(=O)(=O)c1ccc(Cl)c(COc2cccc3c(-n4ccnc4)cc(C)nc23)c1Cl then?
Result: 132 °C

Q: Subsequent entry: O=C(CCNC(=O)C(Cc1ccccc1)CP(=O)(O)O)OCc1ccccc1 (configuration not stated)
Result: 122 to 123 °C

* * *

reported.property: melting point

The examples below pair each entry with its known result.
Cc1nnc(Cl)c(-c2c(F)cc(F)cc2F)c1-c1cccs1 :: 90 to 92 °C
N#Cc1ccc(C=CC(=O)c2ccc(O)c(CC(=O)O)c2)cc1 :: 249 °C
O=C/C=C/c1c(-c2ccc(F)cc2)n(CCc2ccccc2)c(=O)c2ccccc12 :: 133 to 134 °C
C=CC(O)c1ccccc1C#CC1C(O)C2CCN1CC2 (stereo unspecified) :: 148 to 150 °C
CCn1nc(-c2nc(C#N)c(C#N)nc2-c2ccccc2)ccc1=O :: 201 to 203 °C

Q: If you can, please state the reported melting point value of O=C1C=CC(O)(c2cc3ccccc3n2S(=O)(=O)c2ccc(F)cc2)C=C1 .
Result: 165 to 166 °C

Q: Same again, this time with COc1cccc(OC2COc3ccc(OCc4ccc5ccccc5n4)cc3C2O)c1 (stereo unspecified)
Result: 128 to 129 °C

Q: What about this molecule? CCOC(=O)C1=C(C)N(CCOC(=O)c2ccccc2)C(=O)NC1c1ccccc1 (stereo unspecified)
Result: 129 °C

Q: What about this molecule? CC(C)(C)c1cccc(S(=O)(=O)n2c(Cc3ccc(C(=O)O)cc3)cc3cc(C(F)(F)F)ccc32)c1
Result: 128 °C

Q: Try this molecule too: CC1(C)CC(=C(c2ccc(F)cc2)c2ccc(OCC#N)cc2)CC(C)(C)C1
Result: 100 to 101 °C

Q: Try this molecule too: CN1C(=O)N(CC(COc2ccc(-c3ccncc3)cc2)N(O)C=O)C(=O)C1(C)C (stereo unspecified)
Result: 217 to 218 °C

Q: Record: CC(=O)c1c[nH]c2c3c(ccc12)OCC3
Result: 233 to 234 °C

Q: Proceed to CCCCCCCCCCNC(=O)N(C)O
Result: 74 to 76 °C

Q: Also check CCOC(=O)C1=C(C)NC(C(OCC)OCC)=C(C(=O)OCC)C1c1ccccc1C(F)(F)F (stereo unspecified)
Result: 82 to 83 °C

Q: Same question, N#Cc1cc(Cl)nc(NN)c1 this time
Result: 208 to 210 °C

Q: Here is the next molecule: COc1ccc(-c2cc(=Nc3c(C)cc(C)cc3C)n(C)c(=O)n2C)cc1S(C)=O (stereo unspecified)
Result: 125 to 135 °C

Q: Similarly, CCn1ccc(C2(c3cccc(-c4cncnc4)c3)N=C(N)N(C)C2=O)c1 (stereo unspecified) ?
Result: 100 to 102 °C

Q: Proceed to CCOC(=O)C1C(=O)NC(=O)C(CCN(C)C)(c2cccc(OC)c2)C1CC (stereo unspecified)
Result: 160 to 162 °C

Q: Next up: Cc1cc(-c2ccc(Cl)cc2)nnc1Cl
Result: 230 to 233 °C

Q: Please give the result for O=c1c(Cl)nsnc1Cl too.
Result: 81 to 82 °C

Q: Repeat for the following molecule: CCCN(CCC)CC1CCN(CCNC(=O)N2c3ccccc3C(=O)Nc3cccnc32)C1 (stereo unspecified)
Result: 134 to 138 °C

* * *

# reported melting point; entries follow

CCCn1cnc(C(N)=O)c1NC(=O)c1ccccc1OCC :: 182 to 184 °C
CCN(CCCP(=O)(O)O)S(=O)(=O)C(F)(F)C(F)(F)C(F)(F)C(F)(F)F :: 138 to 140 °C
CCCn1c(=O)c2c(NC)n(C(=O)C(C)C)nc2n(Cc2cccc(Cl)c2)c1=O :: 154 to 156 °C
CCSc1nc2ccccc2c(=O)n1NC(=O)Nc1ccc(Cl)cc1 :: 234 to 235 °C
C=CCOn1c(=O)c2cc(F)c(F)cc2n(Cc2ccccc2)c1=O :: 130 to 132 °C

Q: Record request: melting point value, item CCCc1c([C@@H]2C[C@H]2c2ccccc2)oc2ccc(C(=O)OC)cc2c1=O (relative stereo)
Result: 171 to 173 °C

Q: Next entry: COc1cc2ccc(C(=O)O)cc2cc1OC
Result: 245 to 247 °C

Q: Further, for O=C(O)c1ccccc1-c1nc2ccccc2o1 ?
Result: > 250 °C

Q: Next entry: Cc1nc(N)n(C)c(=O)c1CCN1CCN(c2noc3ccccc23)CC1
Result: 201 °C

Data credit: a melting point compilation (Tetko et al.; mined from patent text by program, amines drawn as free bases though some values may be those of a salt)
